cell viability values, listed per item
# Test system: Mv4-11
# ASSAY_PROCEDURE: cell viability relative to DMSO control (bortezomib = 0%); higher = less growth inhibition
# TEST_PARAMETERS: 10 nM; 72 h
Structures can show the parent of a compound that is named as a salt.

[
  {
    "MOLECULE": "Cc1ccc(CNc2ncnc3ccc(-c4ccc(CO)o4)cc23)o1",
    "UNIT_INFO": "%",
    "cell viability": 107
  },
  {
    "MOLECULE": "O=C1NC(=O)/C(=C/c2ccc(-c3ccc(F)cc3O)o2)S1",
    "UNIT_INFO": "%",
    "cell viability": 95.5
  },
  {
    "MOLECULE": "C=CC(=O)Nc1cccc(C)c1Nc1ncc2cc(-c3c(Cl)c(OC)cc(OC)c3Cl)ccc2n1",
    "UNIT_INFO": "%",
    "cell viability": 112
  },
  {
    "MOLECULE": "CC(C)c1ccc2c(c1)CC[C@@H]1[C@@](C)(CN)CCC[C@@]21C [Leelamine (hydrochloride)]",
    "UNIT_INFO": "%",
    "cell viability": 96.5
  },
  {
    "MOLECULE": "CCOc1ccn(-c2ccc(F)cc2)c(=O)c1C(=O)Nc1ccc(Oc2ccnc(N)c2Cl)c(F)c1",
    "UNIT_INFO": "%",
    "cell viability": 114
  },
  {
    "MOLECULE": "COc1cc2ncnc(Nc3ccc(F)c(Cl)c3)c2cc1OCCCN1CCOCC1 [Gefitinib (ZD1839)]",
    "UNIT_INFO": "%",
    "cell viability": 116
  },
  {
    "MOLECULE": "Cc1ccc2nc(-n3[nH]c(C)c(Cc4ccccc4)c3=O)[nH]c2c1",
    "UNIT_INFO": "%",
    "cell viability": 106
  },
  {
    "MOLECULE": "O=C(Nc1cccnc1)c1cc(-c2ccnc(F)c2)ccc1OCc1ccccc1",
    "UNIT_INFO": "%",
    "cell viability": 105
  },
  {
    "MOLECULE": "C[C@H]1[C@H](C)CC[C@]2(C(=O)O[C@@H]3O[C@H](CO[C@@H]4O[C@H](CO)[C@@H](O[C@@H]5O[C@H](C)[C@H](O)[C@@H](O)[C@H]5O)[C@H](O)[C@H]4O)[C@@H](O)[C@H](O)[C@H]3O)CC[C@]3(C)C(=CC[C@@H]4[C@@]5(C)C[C@@H](O)[C@H](O)[C@@](C)(CO)[C@@H]5CC[C@]43C)[C@H]12 [Asiaticoside]",
    "UNIT_INFO": "%",
    "cell viability": 114
  },
  {
    "MOLECULE": "CC(C)=CCC[C@](C)(O[C@@H]1O[C@H](CO)[C@@H](O)[C@H](O)[C@H]1O)[C@H]1CC[C@]2(C)[C@@H]1[C@H](O)C[C@@H]1[C@@]3(C)CC[C@H](O)C(C)(C)[C@@H]3[C@@H](O[C@@H]3O[C@H](CO)[C@@H](O)[C@H](O)[C@H]3O[C@@H]3OC[C@@H](O)[C@H](O)[C@H]3O)C[C@]12C [Notoginsenoside R1]",
    "UNIT_INFO": "%",
    "cell viability": 105
  },
  {
    "MOLECULE": "Cc1c(C)c2c(c(C)c1O)CC[C@@](C)(CCC[C@H](C)CCC[C@H](C)CCCC(C)C)O2 [Vitamin E]",
    "UNIT_INFO": "%",
    "cell viability": 107
  },
  {
    "MOLECULE": "COc1cc2ncnc(Nc3ccc(F)c(Cl)c3)c2cc1OCCCN1CCOCC1 [Gefitinib]",
    "UNIT_INFO": "%",
    "cell viability": 120
  },
  {
    "MOLECULE": "Cn1cc(C2=C(c3cn(CCCN)c4ccccc34)C(=O)NC2=O)c2ccccc21 [Bisindolylmaleimide VIII (acetate)]",
    "UNIT_INFO": "%",
    "cell viability": 119
  },
  {
    "MOLECULE": "CN(C)CCN(C)C(=O)c1ccc(NC(=O)Nc2ccc(-c3nc(N4CCOCC4)c4ccn(CC(F)(F)F)c4n3)cc2)cc1",
    "UNIT_INFO": "%",
    "cell viability": 105
  },
  {
    "MOLECULE": "C[C@@]1(C(=O)Nc2ccc(F)nc2)CCCN1c1nc(Nc2cc(C3CC3)n[nH]2)c2cccn2n1",
    "UNIT_INFO": "%",
    "cell viability": 127
  },
  {
    "MOLECULE": "O=C(COc1ccc(Cl)cc1)NC1CCC(NC(=O)COc2ccc(Cl)cc2)CC1 (stereo unspecified)",
    "UNIT_INFO": "%",
    "cell viability": 111
  },
  {
    "MOLECULE": "Cc1ccc2c(Nc3ccc(Cl)cc3)nccc2c1Nc1ncccc1-c1ncnc2nc[nH]c12 [B-Raf inhibitor 1]",
    "UNIT_INFO": "%",
    "cell viability": 107
  },
  {
    "MOLECULE": "N#Cc1c(Oc2ccc(F)c(NC(=O)Cc3cccc(C(F)(F)F)c3)c2)ccc2nc(NC(=O)C3CC3)sc12",
    "UNIT_INFO": "%",
    "cell viability": 114
  },
  {
    "MOLECULE": "COC1=CC(=O)c2ccccc2C1=O [2-Methoxy-1,4-naphthoquinone]",
    "UNIT_INFO": "%",
    "cell viability": 98.6
  },
  {
    "MOLECULE": "C=CC(=O)N1CCC(Oc2cc3c(Nc4ccc(Cl)c(Cl)c4F)ncnc3cc2OC)CC1 [Poziotinib (HM781-36B)]",
    "UNIT_INFO": "%",
    "cell viability": 113
  },
  {
    "MOLECULE": "Oc1cc(O)cc(/C=C/c2ccc(O)c(O)c2)c1 [Piceatannol]",
    "UNIT_INFO": "%",
    "cell viability": 108
  },
  {
    "MOLECULE": "CC[C@H](CO)Nc1nc(NCc2ccccc2)c2ncn(C(C)C)c2n1 [(R)-Roscovitine]",
    "UNIT_INFO": "%",
    "cell viability": 103
  },
  {
    "MOLECULE": "CCCC(CCC)C(=O)O [Valproic Acid (sodium salt)]",
    "UNIT_INFO": "%",
    "cell viability": 104
  },
  {
    "MOLECULE": "CN1CCN(c2cccc(Nc3nc4c(-c5ccc(S(C)(=O)=O)cc5)cccn4n3)c2)CC1",
    "UNIT_INFO": "%",
    "cell viability": 101
  },
  {
    "MOLECULE": "CNC(=O)c1cc(Oc2ccc(NC(=O)Nc3ccc(Cl)c(C(F)(F)F)c3)cc2)ccn1 [Sorafenib]",
    "UNIT_INFO": "%",
    "cell viability": 47.8
  },
  {
    "MOLECULE": "CCc1cnn2c(NCc3ccc[n+]([O-])c3)cc(N3CCCC[C@H]3CCO)nc12",
    "UNIT_INFO": "%",
    "cell viability": 86.6
  },
  {
    "MOLECULE": "C#Cc1cccc(Nc2ncnc3cc(OCCOC)c(OCCOC)cc23)c1 [Erlotinib hydrochloride]",
    "UNIT_INFO": "%",
    "cell viability": 121
  },
  {
    "MOLECULE": "COc1cc2/c(=N/c3ccc(Br)cc3F)nc[nH]c2cc1OCC1CCN(C)CC1 [Vandetanib (ZD6474)]",
    "UNIT_INFO": "%",
    "cell viability": 117
  },
  {
    "MOLECULE": "CS(=O)(=O)c1ccc(-c2nc(-c3ccc(F)cc3)c(-c3ccncc3)[nH]2)cc1",
    "UNIT_INFO": "%",
    "cell viability": 100
  },
  {
    "MOLECULE": "CC#CC(=O)N1CCC[C@H]1c1nc(-c2ccc(C(=O)Nc3ccccn3)cc2)c2c(N)nccn12 [Acalabrutinib]",
    "UNIT_INFO": "%",
    "cell viability": 126
  },
  {
    "MOLECULE": "O=c1cc(N2CCOCC2)oc2c(-c3ccccc3)cccc12",
    "UNIT_INFO": "%",
    "cell viability": 104
  }
]
